study system: T1, MADWLTFQKKHI
T1 chain: MADWLTFQKKHI
Please provide measured Specific activity (unit/mg) for the entries that follow.
Express it in unit/mg; write the number only.

Any idea what its Specific activity (unit/mg) is? The protein is MetAP-M206G-Q233G (protein) AISIKTPEDIEKMRVAGRLAAEVLEMIEPYVKPGVSTGELDRICNDYIVNEQHAVSACLGYHGYPKSVCISINEVVCHGIPDDAKLLKDGDIVNIDVTVIKDGFHGDTSKMFIVGKPTIMGERLCRITQESLYLALRMVKPGINLREIGAAIQKFVEAEGFSVVREYCGHGIGRGFHEEPQVLHYDSRETNVVLKPGMTFTIEPGVNAGKKEIRTMKDGWTVKTKDRSLSAGYEHTIVVTDNGCEILTLRKDDTIPAIISHDE 3.28

Again, but for MetAP-YMQ (wild type E. coli methionine aminopeptidase) (protein) AISIKTPEDIEKMRVAGRLAAEVLEMIEPYVKPGVSTGELDRICNDYIVNEQHAVSACLGYHGYPKSVCISINEVVCHGIPDDAKLLKDGDIVNIDVTVIKDGFHGDTSKMFIVGKPTIMGERLCRITQESLYLALRMVKPGINLREIGAAIQKFVEAEGFSVVREYCGHGIGRGFHEEPQVLHYDSRETNVVLKPGMTFTIEPMVNAGKKEIRTMKDGWTVKTKDRSLSAQYEHTIVVTDNGCEILTLRKDDTIPAIISHDE 85

Cool, now MetAP-GTG (protein) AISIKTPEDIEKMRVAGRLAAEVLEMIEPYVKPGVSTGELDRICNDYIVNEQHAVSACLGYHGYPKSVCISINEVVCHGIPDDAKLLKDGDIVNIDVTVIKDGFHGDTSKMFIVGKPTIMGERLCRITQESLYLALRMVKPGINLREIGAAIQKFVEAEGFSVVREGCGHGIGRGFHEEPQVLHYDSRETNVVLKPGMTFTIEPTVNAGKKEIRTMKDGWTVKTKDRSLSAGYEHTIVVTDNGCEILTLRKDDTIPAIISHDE 9.8

Same question, MetAP-M206T-Q233G (protein) AISIKTPEDIEKMRVAGRLAAEVLEMIEPYVKPGVSTGELDRICNDYIVNEQHAVSACLGYHGYPKSVCISINEVVCHGIPDDAKLLKDGDIVNIDVTVIKDGFHGDTSKMFIVGKPTIMGERLCRITQESLYLALRMVKPGINLREIGAAIQKFVEAEGFSVVREYCGHGIGRGFHEEPQVLHYDSRETNVVLKPGMTFTIEPTVNAGKKEIRTMKDGWTVKTKDRSLSAGYEHTIVVTDNGCEILTLRKDDTIPAIISHDE this time 73
